Tested on: MDA-MB-231 breast
Experiment: NCI tumour cell line growth inhibition, 48 h; in the data active = GI50 below about 0.43 µM; inactive = the rest
Labels: TRUE = active, FALSE = inactive

{"Compound": "COc1cc(CCNC(=O)OC(C)(C)C)c2c(c1OC)SSSSS2", "Classification": "FALSE"}
{"Compound": "O=C1c2cc(F)ccc2-c2c1c1ccc([N+](=O)[O-])cc1c(=O)n2CCCBr", "Classification": "FALSE"}
{"Compound": "N#CC1=C(N)Oc2c(sc3c(Br)cccc23)C1c1ccc(Cl)cc1 (configuration not stated)", "Classification": "FALSE"}
{"Compound": "NC(N)=Nc1ccc(/C=C2\\C=Cc3ccccc32)cc1", "Classification": "FALSE"}
{"Compound": "COc1cc2nc3cc([N+](=O)[O-])ccc3c(NCCNCC(C)O)c2cc1OC (configuration not stated)", "Classification": "FALSE"}
{"Compound": "C=C1c2nc3ccccc3n2C=C(c2ccc(Cl)cc2)N1c1ccc(OCCN2CCCCC2)cc1", "Classification": "FALSE"}
{"Compound": "C=CC(=O)N1CC[C@H](n2nc(C#Cc3cc(OC)cc(OC)c3)c3c(N)ncnc32)C1", "Classification": "FALSE"}
{"Compound": "Cn1c(-c2c(N)n(Cc3ccc(F)cc3)c3nc(C#N)c(C#N)nc23)nc2ccccc21", "Classification": "FALSE"}
{"Compound": "Cc1ccsc1-c1ccc2c(c1)COC2(CCCN(C)C)c1ccc(F)cc1 (configuration not stated)", "Classification": "FALSE"}
{"Compound": "Cc1ccccc1C(C(=O)NC1CCCCC1)N(C(=O)CNc1ccc(C#N)cc1)c1cccc(F)c1 (configuration not stated)", "Classification": "FALSE"}
{"Compound": "CN(C)CCOc1ccccc1NC1=C(Cl)C(=O)C(Nc2ccccc2OCCN(C)C)=C(Cl)C1=O", "Classification": "FALSE"}
{"Compound": "O=C1NC(=NCCc2ccccn2)S/C1=C\\c1ccc2ncccc2c1", "Classification": "FALSE"}
{"Compound": "Nc1ncn([C@H]2C[C@H](OP(=O)(O)OC[C@H]3O[C@@H](n4cnc5c(=O)[nH]c(N)nc54)C[C@@H]3O)[C@@H](CO)O2)c(=O)n1", "Classification": "FALSE"}
{"Compound": "Cc1cccc(Cl)c1NC(=O)c1cnc(Nc2cc(N3CCOCC3)cc(S(C)(=O)=O)c2)s1", "Classification": "TRUE"}
{"Compound": "CCCN(CCC)c1ccc(C=O)c(C)c1", "Classification": "FALSE"}
{"Compound": "CNC(=O)c1cccc(C#Cc2cncnc2Nc2ccc(OCc3cccc(F)c3)c(Cl)c2)c1", "Classification": "FALSE"}
{"Compound": "COc1cc(/C=C/C(=O)c2c(-c3ccc(F)cc3)nc3sc(C)nn23)cc(OC)c1OC", "Classification": "FALSE"}

====

Test system: SF-268 CNS
Assay: NCI tumour cell line growth inhibition, 48 h
Experimental endpoint: GI50

{"Molecule": "[Cu+2].[NH-]C(CC(=O)O)C(=O)O.[NH-]C(CC(=O)O)C(=O)O (stereo not given)", "Measured target": "SF-268 CNS", "Observed result": "> 100 µM"}
{"Molecule": "Cc1ccccc1C(C(=O)NC1CCCCC1)N(C(=O)CNc1ncccc1F)c1cccc(F)c1 (stereo not given)", "Measured target": "SF-268 CNS", "Observed result": "48.7 µM"}
{"Molecule": "Cc1[nH]nc2ncc(C(=O)N3CCC[C@H]3c3ccc(Cl)cc3)cc12", "Measured target": "SF-268 CNS", "Observed result": "> 100 µM"}
{"Molecule": "CCCCCCCCCCCCCCCCN(CC)CC", "Measured target": "SF-268 CNS", "Observed result": "2.64 µM"}
{"Molecule": "NC(N)=Nc1ccc(/C=C2\\C=Cc3ccccc32)cc1", "Measured target": "SF-268 CNS", "Observed result": "3.12 µM"}
{"Molecule": "NC(=O)c1cc(Br)ccc1NC(=O)/C=C/c1ccccc1", "Measured target": "SF-268 CNS", "Observed result": "2.85 µM"}
{"Molecule": "C=C1C(=O)O[C@H]2[C@H]1CC/C(CNC(=O)/C=C/c1ccccc1F)=C\\CC[C@@]1(C)O[C@@H]21", "Measured target": "SF-268 CNS", "Observed result": "2.83 µM"}
{"Molecule": "N#Cc1c(N/N=C\\c2ccc(Cl)cc2)nc(N)nc1N1CCOCC1", "Measured target": "SF-268 CNS", "Observed result": "> 100 µM"}
{"Molecule": "CCNCCNc1cc(-c2ccc(C(F)(F)F)cc2)c(C#N)c2nc3cc(Cl)c(Cl)cc3n12", "Measured target": "SF-268 CNS", "Observed result": "1.6 µM"}
{"Molecule": "CN(C)CCOc1ccccc1NC1=C(Cl)C(=O)C(Nc2ccccc2OCCN(C)C)=C(Cl)C1=O", "Measured target": "SF-268 CNS", "Observed result": "9.76 µM"}
